- EXPERIMENT_NOTES: Part 2 effect of a low-fat meal on PK
- Assay type: in vivo, human
- APPLIED_CONDITIONS: human, plasma, oral, 120 mg, AUC∞, Geometric mean (% CV), part 2, 120 mg, fasted
METRIC: AUC(0-inf) (ng·h/mL)
# output: bare number, implied unit ng·h/mL

What measured AUC(0-inf) goes with C=CC(=O)Nc1cc(Nc2ncc(C(=O)OC(C)C)c(-c3cn(C)c4ccccc34)n2)c(OC)cc1N(C)CCN(C)C ? 526

----------
- EXPERIMENT_NOTES: Part 2 effect of a low-fat meal on PK
- Format: in vivo, human
- APPLIED_CONDITIONS: human, plasma, oral, 160 mg, tmax, Median (range), part 2, 160 mg, fasted
METRIC: Tmax

What measured Tmax goes with C=CC(=O)Nc1cc(Nc2ncc(C(=O)OC(C)C)c(-c3cn(C)c4ccccc34)n2)c(OC)cc1N(C)CCN(C)C ? 6 h

----------
- EXPERIMENT_NOTES: Part 2 effect of a low-fat meal on PK
- Format: in vivo, human
- APPLIED_CONDITIONS: human, plasma, oral, 120 mg, Cmax, Geometric mean (% CV), part 2, 120 mg, fasted
METRIC: Cmax (ng/mL)
# output: bare number, implied unit ng/mL

What measured Cmax goes with C=CC(=O)Nc1cc(Nc2ncc(C(=O)OC(C)C)c(-c3cn(C)c4ccccc34)n2)c(OC)cc1N(C)CCN(C)C ? 31.2

----------
- EXPERIMENT_NOTES: Part 2 effect of a low-fat meal on PK
- Type: in vivo, human
- APPLIED_CONDITIONS: human, plasma, oral, 120 mg, tmax, Median (range), part 2, 120 mg, fasted
METRIC: Tmax (h)
# output: bare number, implied unit h

What measured Tmax goes with C=CC(=O)Nc1cc(Nc2ncc(C(=O)OC(C)C)c(-c3cn(C)c4ccccc34)n2)c(OC)cc1N(C)CCN(C)C [Mobocertinib] ? 4

----------
- EXPERIMENT_NOTES: Part 2 effect of a low-fat meal on PK
- Assay type: in vivo, human
- APPLIED_CONDITIONS: human, plasma, oral, 160 mg, Cmax, Mean (SD), part 2, 160 mg, low-fat meal
METRIC: Cmax (ng/mL)
# output: bare number, implied unit ng/mL

What measured Cmax goes with C=CC(=O)Nc1cc(Nc2ncc(C(=O)OC(C)C)c(-c3cn(C)c4ccccc34)n2)c(OC)cc1N(C)CCN(C)C ? 43

----------
- EXPERIMENT_NOTES: Part 2 effect of a low-fat meal on PK
- Assay type: in vivo, human
- APPLIED_CONDITIONS: human, plasma, oral, 120 mg, AUC∞, Mean (SD), part 2, 120 mg, low-fat meal
METRIC: AUC(0-inf) (ng·h/mL)
# output: bare number, implied unit ng·h/mL

What measured AUC(0-inf) goes with C=CC(=O)Nc1cc(Nc2ncc(C(=O)OC(C)C)c(-c3cn(C)c4ccccc34)n2)c(OC)cc1N(C)CCN(C)C ? 578

----------
- EXPERIMENT_NOTES: Part 1 single-ascending-dose study, plasma PK
- Format: in vivo, human
- APPLIED_CONDITIONS: human, plasma, po, 80 mg
METRIC: Tmax (h)
# output: bare number, implied unit h

What measured Tmax goes with C=CC(=O)Nc1cc(Nc2ncc(C(=O)OC(C)C)c(-c3cn(C)c4ccccc34)n2)c(OC)cc1N(C)CCN(C)C ? 4

----------
- EXPERIMENT_NOTES: Part 1 single-ascending-dose study, plasma PK
- Type: in vivo, human
- APPLIED_CONDITIONS: human, plasma, po, 120 mg
METRIC: Tmax

What measured Tmax goes with C=CC(=O)Nc1cc(Nc2ncc(C(=O)OC(C)C)c(-c3cn(C)c4ccccc34)n2)c(OC)cc1N(C)CCN(C)C ? 6 h

----------
- EXPERIMENT_NOTES: Part 2 effect of a low-fat meal on PK
- Assay type: in vivo, human
- APPLIED_CONDITIONS: human, plasma, oral, 120 mg, tmax, Median (range), part 2, 120 mg, low-fat meal
METRIC: Tmax (h)
# output: bare number, implied unit h

What measured Tmax goes with C=CC(=O)Nc1cc(Nc2ncc(C(=O)OC(C)C)c(-c3cn(C)c4ccccc34)n2)c(OC)cc1N(C)CCN(C)C [Mobocertinib] ? 6

----------
- EXPERIMENT_NOTES: Part 2 effect of a low-fat meal on PK
- Assay type: in vivo, human
- APPLIED_CONDITIONS: human, plasma, oral, 160 mg, Cmax, Geometric mean (% CV), part 2, 160 mg, low-fat meal
METRIC: Cmax (ng/mL)
# output: bare number, implied unit ng/mL

What measured Cmax goes with C=CC(=O)Nc1cc(Nc2ncc(C(=O)OC(C)C)c(-c3cn(C)c4ccccc34)n2)c(OC)cc1N(C)CCN(C)C [Mobocertinib] ? 39.5
